System: PC3 cells
Assay: PC3 cell proliferation, 3D activity detection
Format: cell-based, human
Conditions: Homo sapiens, PC-3, 336 h; PC3, 3D culture, 14 days, numeric (mean where marked *); read-out: 3D IC50 against PC3 cells
Protocol: 3D activity detection: PC3 cells were seeded in a 96-well plate at 1200 cells/well, and 3D culture was performed. 14 days after the compound serially diluted was added, the growth of the cells was determined. The inhibition percentage and IC50 of the compound were calculated compared to the DMSO control group.
pIC50: −log10 of the molar value.
Value type: pIC50

COc1cc(C(=O)NC2COC3(CCN(C)CC3)C2)c(F)cc1Nc1ncc(C(F)(F)F)c(Oc2cccc3c2C(=O)N(C)C3)n1 (stereo not shown) [Compound 23]; 8.43
COc1cc(N2CC3(CCN(C)CC3)C2)ccc1Nc1ncc(Cl)c(Oc2cccc3c2C(=O)N(C)C3)n1 [Compound 111]; 8.75
COc1cc(N2CC3(CCN(C)CC3)C2)ccc1Nc1ncc(C(F)(F)F)c(Oc2cccc3c2C(=O)N(C)C3(C)C)n1 [Compound 101]; 8.31
COc1cc(N2CC3(CCN(C)CC3)C2)ccc1Nc1ncc(C(F)(F)F)c(Oc2cccc3c2C(=O)N(C)C3)n1 [Compound 90]; 9.10

I: COc1cc(C(=O)NC2CCC3(CC2)CN(C)C3)c(F)cc1Nc1ncc(C(F)(F)F)c(Oc2cccc3c2C(=O)N(C)C3)n1 [Compound 20]
II: COc1cc(N2CCC3(CC2)CN(C)C3)ccc1Nc1ncc(C(F)(F)F)c(Oc2cccc3c2C(=O)N(C)C3)n1 [Compound 92]
III: COc1cc(N2CC3(CCN(C)CC3)C2)ccc1Nc1ncc(C(F)(F)F)c(Oc2cccc3c2C(=O)N(C)C3C)n1 (stereo not shown) [Compound 100]
In: Descending sort on pIC50 required. Could you list the labels in the order requested?
Out: II, III, I
(II: 9.08, III: 8.65, I: 8.37)
